Listing of recorded half-life by entry.
test: Alkaline stability of ligands in 0.5 M sodium hydroxide; format: physicochemical; details: 25° C., 8 days, hydrolysis monitored by LC-MS, read-out: t0.5 (half-life) (converted)

Worked cases, answers included:
> print(dat)
                                 testsmiles  measurementkind  reportedresult
1  NCCCn1cnc2cc(C(=O)Nc3nc(-c4ccccn4)cs3)ccc21        half-life     > 41.6 days
2  Cc1nc2cc(C(=O)Nc3nnc(-c4ccco4)s3)ccc2n1CCCN        half-life     > 41.6 days
3  NCCCn1cnc2cc(C(=O)Nc3nc(-c4cccnc4)cs3)ccc21        half-life         30 days
4       Cc1nsc(NC(=O)c2ccc3c(c2)ncn3CCCN)n1        half-life     > 41.6 days
5  Cn1nc(C(=O)Nc2ccc3c(c2)ncn3CCCN)c2ccccc21        half-life         35 days
6          NCCCn1cnc2cc(C(=O)Nc3nncs3)ccc21        half-life     > 41.6 days

Turning now to a further record.
Name the reported half-life value associated with the compound "Cc1nnc(NC(=O)c2ccc3c(c2)ncn3CCCN)s1"
> 41.6 days
